Recorded inhibition for the following molecules
- Assay Info: growth suppression of yeast trafficking mutant, preliminary HTS, modulators of trafficking downstream of Golgi apparatus project, 1536-format plate, OD 615 nm (AID 637)
- Assay Setup: yeast transport mutant growth, absorbance 615 nm, 18 h; stronger effect = higher value
Measure Name: inhibition (%)

>>> experimental_value("CNC(=O)c1c(O)c2cccc3c2n(c1=O)CC3")
-4.52
>>> experimental_value("COC(=O)CCN1CCC(C(N)=O)CC1")
2.46
>>> experimental_value("CCCC(c1nnnn1Cc1ccc(OC)cc1)N1CCN(c2ccccc2OC)CC1 (stereo unspecified)")
-2.3
>>> experimental_value("CCC(=O)NC1(C(F)(F)F)C(=O)NC(C)=C1C#N (stereo unspecified)")
1.59
>>> experimental_value("CCN(CCCNC(=O)c1cn(CC)c2ccc(S(=O)(=O)N(C)C)cc2c1=O)c1cccc(C)c1")
4.26
>>> experimental_value("Cc1cc(C(=O)OCC(=O)N2c3ccccc3CC2C)c(C)o1 (stereo unspecified)")
-4.75
>>> experimental_value("COCCNS(=O)(=O)c1cc(F)ccc1OC")
-5.74
>>> experimental_value("COc1ccccc1C(=O)Nc1ccc(N2CCN(S(C)(=O)=O)CC2)cc1")
-4
>>> experimental_value("COc1ccc(Oc2c(C)oc3cc(OC(=O)N4CCOCC4)ccc3c2=O)cc1")
-5.08
>>> experimental_value("O=C(Nc1ccc(N2CCOCC2)c(F)c1)c1ccncc1")
1.64
>>> experimental_value("C=CCn1c(COc2ccccc2F)nnc1SCC(=O)N1CC(=O)Nc2ccccc21")
51.5
>>> experimental_value("CN(C)c1ccc(NC(=O)CSCc2nc3c(nnn3Cc3ccc(F)cc3)c(=O)[nH]2)cc1")
0
>>> experimental_value("O=C(c1cnn2c(C(F)(F)F)cc(-c3ccco3)nc12)N1CCc2ccccc2C1")
-9.37
>>> experimental_value("COc1cc(C(=O)N2CCC(NC(=O)C(Cc3ccc(C)cc3)NC(C)=O)CC2)cc(OC)c1OC (stereo unspecified)")
0.16
>>> experimental_value("COc1ccc2cc(CN(Cc3ccco3)C(c3nnnn3C3CCCCC3)C(C)C)c(=O)[nH]c2c1 (stereo unspecified)")
-4.59
>>> experimental_value("COC(=O)CCSCc1cn2cc(Cl)ccc2n1")
-9.84

====

- Assay Info: reversal of MRP1-mediated doxorubicin resistance, pilot screen, H69AR cells, doxorubicin co-treatment (AID 601)
- Assay Setup: H69AR cells + 2 uM doxorubicin, CellTiter-Glo, 72 h; measured here: viability with 2 uM doxorubicin; at 10 µM; stronger effect = lower value
viability reference
Measure Name: viability (%)

>>> experimental_value("CCOc1cccc(OCCOCCN2CCCC2)c1")
90.5
>>> experimental_value("O=C(CSc1nnnn1Cc1ccccc1)Nc1ccc2c(c1)OCO2")
89.5
>>> experimental_value("CSc1ccccc1N=CC1=C(O)CC(C)(C)CC1=O")
90.1

====

Known viability of a selection of compounds
- Assay Info: HUVEC growth inhibition – cell-based, human, primary screen (AID 575);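 further: 100% = median of untreated cell wells with 0.1% DMSO on each plate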
- Assay Setup: HUVEC proliferation, CellTiter-Glo luminescence, 72 h; at 10 µM; stronger effect = lower value
Measure Name: viability (%)

>>> experimental_value("O=C(Nc1ccc(O)cc1)C1CCCN1S(=O)(=O)c1ccc(F)cc1 (stereo unspecified)")
91.6
>>> experimental_value("COC(=O)c1ccc(CSc2nnc(-c3ccncc3)o2)o1")
87.8
>>> experimental_value("CCCn1c(SCC(=O)N2CCc3ccccc3C2)nc2c1c(=O)n(C)c(=O)n2C")
91.2
>>> experimental_value("Cc1cc2cc(CN(CC3CCCO3)C(=O)c3cnccn3)c(=O)[nH]c2cc1C (stereo unspecified)")
89.9
>>> experimental_value("COc1ccc(S(=O)(=O)n2nc(OC(=O)c3ccc(C)cc3)cc2N)cc1")
91.6
>>> experimental_value("CC(C)N(C(=O)CSc1nnc(NC(=O)C2CCC2)s1)C(C)C")
90.4
